Hello, the source for this data is patent EP1184374A1, in case you need it.

- tested on: GPIIb/IIIa (Homo sapiens, UniProt P05106+P08514)
- Sequence (P08514 32-887 limits assumed): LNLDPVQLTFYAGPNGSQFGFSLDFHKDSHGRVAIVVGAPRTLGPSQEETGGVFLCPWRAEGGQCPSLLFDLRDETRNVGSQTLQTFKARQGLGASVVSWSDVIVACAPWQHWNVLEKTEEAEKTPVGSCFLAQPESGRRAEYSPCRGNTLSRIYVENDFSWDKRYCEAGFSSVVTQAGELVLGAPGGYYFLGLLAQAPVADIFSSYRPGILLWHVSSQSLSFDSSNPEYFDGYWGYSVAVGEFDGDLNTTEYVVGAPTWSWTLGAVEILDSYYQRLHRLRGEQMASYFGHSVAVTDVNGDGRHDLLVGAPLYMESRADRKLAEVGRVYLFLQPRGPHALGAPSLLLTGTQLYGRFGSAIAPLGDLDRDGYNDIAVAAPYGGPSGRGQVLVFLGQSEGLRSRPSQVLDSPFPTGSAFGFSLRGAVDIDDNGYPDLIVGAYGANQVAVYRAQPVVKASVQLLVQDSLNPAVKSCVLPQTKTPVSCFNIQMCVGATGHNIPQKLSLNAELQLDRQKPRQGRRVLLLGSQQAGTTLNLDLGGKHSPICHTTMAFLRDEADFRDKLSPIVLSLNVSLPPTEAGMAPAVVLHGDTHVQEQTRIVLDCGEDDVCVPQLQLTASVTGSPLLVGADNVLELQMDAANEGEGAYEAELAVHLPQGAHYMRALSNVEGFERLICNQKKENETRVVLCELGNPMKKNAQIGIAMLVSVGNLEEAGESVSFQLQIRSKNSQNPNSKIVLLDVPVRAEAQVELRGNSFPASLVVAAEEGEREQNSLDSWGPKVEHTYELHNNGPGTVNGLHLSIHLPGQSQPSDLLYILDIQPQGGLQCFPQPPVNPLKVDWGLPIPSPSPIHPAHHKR
- Sequence (P08514 891-1039 partner limits assumed): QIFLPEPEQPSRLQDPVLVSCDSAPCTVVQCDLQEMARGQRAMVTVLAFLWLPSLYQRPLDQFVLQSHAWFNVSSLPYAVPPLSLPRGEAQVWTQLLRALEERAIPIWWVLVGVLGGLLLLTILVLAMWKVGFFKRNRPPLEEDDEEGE
- Sequence (P05106 27-788): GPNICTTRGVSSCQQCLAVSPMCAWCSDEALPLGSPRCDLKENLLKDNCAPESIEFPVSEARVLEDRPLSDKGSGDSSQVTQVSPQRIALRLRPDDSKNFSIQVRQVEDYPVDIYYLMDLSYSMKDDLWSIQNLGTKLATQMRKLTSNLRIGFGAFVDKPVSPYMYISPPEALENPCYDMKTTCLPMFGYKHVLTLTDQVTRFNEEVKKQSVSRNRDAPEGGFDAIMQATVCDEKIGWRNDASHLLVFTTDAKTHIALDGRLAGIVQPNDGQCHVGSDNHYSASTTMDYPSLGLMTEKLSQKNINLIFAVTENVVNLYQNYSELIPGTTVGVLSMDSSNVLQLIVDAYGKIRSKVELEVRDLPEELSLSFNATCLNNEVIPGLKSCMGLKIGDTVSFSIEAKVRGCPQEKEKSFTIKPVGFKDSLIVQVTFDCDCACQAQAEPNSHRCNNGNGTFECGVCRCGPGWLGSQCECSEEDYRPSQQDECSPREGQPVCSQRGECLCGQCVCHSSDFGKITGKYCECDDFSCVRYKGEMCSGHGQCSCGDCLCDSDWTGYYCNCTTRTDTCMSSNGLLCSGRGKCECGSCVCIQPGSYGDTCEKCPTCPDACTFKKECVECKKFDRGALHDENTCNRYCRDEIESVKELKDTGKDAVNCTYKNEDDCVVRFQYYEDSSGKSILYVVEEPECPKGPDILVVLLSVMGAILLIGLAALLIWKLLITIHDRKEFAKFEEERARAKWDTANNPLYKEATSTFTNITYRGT
- assay procedure: In vitro solid phase purified glycoprotein IIb/IIIa binding assay (biotinylated fibrinogen binding)
measured property: IC50 (µM)
Field: numeric (µM). Do not append units.

Qu. Return IC50 for the following molecule: CC(C)(C)C#CC(CC(=O)O)NC(=O)C1CCCN(C(=O)CCC2CCNCC2)C1 (single isomer, unassigned)
Ans. 0.021

Qu. Please report the measured IC50 for O=C(NCCc1nnn[nH]1)C1CCCN(C(=O)CCC2CCNCC2)C1 (stereo not shown)
Ans. 1.39

Qu. Give me measured IC50, please, for this molecule: O=C(O)CC(NC(=O)C1CCCN(C(=O)CCC2CCNCC2)C1)c1ccccc1 (stereo not shown)
Ans. 0.003

Qu. Please report the measured IC50 for O=C(O)C1CN(C(=O)C2CCCN(C(=O)CCC3CCNCC3)C2)CCC1=O (stereo not shown)
Ans. 0.332

Qu. Provide one value: measured IC50 of CN1CCN(CCC(=O)N2CCCC(C(=O)NC(CC(=O)O)c3cnc4ccccc4c3)C2)CC1 (stereo not shown)
Ans. 0.0091

Qu. Assign IC50 to the following record: Cc1ccc(C(CC(=O)O)NC(=O)C2CCN(C(=O)CCC3CCNCC3)C2)cc1 (stereo not shown)
Ans. 0.121

Qu. Look up IC50 of O=C(O)CCNC(=O)C1CCCN(S(=O)(=O)CCC2CCNCC2)C1 (stereo not shown) and report it.
Ans. 0.025
